System: IGROV1 ovarian
Experiment: NCI-60 one-dose screen, 48 h (100 = growth as untreated, 0 = no growth, -100 = all killed)
Details: 10 µM unless noted
Description: Growth inhibition of the IGROV1 human tumor cell line is measured as a screen for anti-cancer activity. Cells are grown in 96 well plates and exposed to the test compound for 48 hours. Compounds are tested at a single concentration, which is 10^-5 M for most compounds. The reported endpoint is percent growth (GI% or GIPRCNT), where numbers from 0 - 100% represent growth inhibition, and numbers from -100% - 0 represent cell death. For example, a value of 40 represents 60% growth inhibition. […]
About 83,000 compounds went through this panel and 20% of them were active in at least one assay; those are over-represented in the sample as a whole.
The reader will find reported growth values listed item by item below.
Provide the reading as a plain figure in %.

The examples below pair each entry with its known result.
{"compound": "Nc1ccccc1NC(=O)c1ccc(-n2nc(-c3ccccc3)c3ccccc32)cc1", "subject of test": "IGROV1 ovarian", "growth [%]": 68.5}
{"compound": "CCNc1nc2ccc(Nc3ccnc4cc(Cl)ccc34)cc2[nH]1", "subject of test": "IGROV1 ovarian", "growth [%]": 91.3}
{"compound": "Cc1nc(N)nc(N[C@@H](C)c2nc3cccc(NCc4ccc(C(=O)NO)cc4)c3c(=O)n2-c2ccccc2)n1", "subject of test": "IGROV1 ovarian", "growth [%]": 69.5}
{"compound": "CNCCOc1nc2c3cnccc3cc(-c3cc(OC)c(OC)c(OC)c3)c2c2ccncc12", "subject of test": "IGROV1 ovarian", "growth [%]": -16.3}
{"compound": "CCCCOc1ccc(/C=N/Nc2cc(C)nc3ccc(Br)cc23)cc1", "subject of test": "IGROV1 ovarian", "growth [%]": 10}

query: Query growth for COc1ccc(C(=O)/C=C/c2cc3ccccc3n3nnnc23)cc1
result: 109

query: Query growth for COc1cc2c3c(c4c5ccccc5[nH]c4c2c(OC)c1OC)C(=O)N(CCN1CCOCC1)C3=O
result: 53.9

query: Query growth for CC(=O)Nc1ccc(-n2cnc3cc(-c4ccc(OCCN5CCCCC5)cc4)ccc32)cc1
result: 97.4
